# assay-system: equine FcRn (large alpha subunit p51) / equine beta-2-microglobulin complex, biotinylated (equine) (UniProt P30441)
# experiment-summary: SPR (Biacore), pH 6
experimental-readout: Kd (nM)
Expressed in nM, but write only the number.

Completed entries (count: 2):
[[record]]
binder = "equine IgG1 Y436I (antibody, part only; not given: variable domains, not shown: another chain or arm of the molecule) constant: ASTTAPKVFALAPGCGTTSDSTVALGCLVSGYFPEPVKVSWNSGSLTSGVHTFPSVLQSSGFYSLSSMVTVPASTWTSETYICNVVHAASNFKVDKRIEPIPDNHQKVCDMSKCPKCPAPELLGGPSVFIFPPNPKDTLMITRTPEVTCVVVDVSQENPDVKFNWYMDGVEVRTATTRPKEEQFNSTYRVVSVLRIQHQDWLSGKEFKCKVNNQALPQPIERTITKTKGRSQEPQVYVLAPHPDELSKSKVSVTCLVKDFYPPEINIEWQSNGQPELETKYSTTQAQQDSDGSYFLYSKLSVDRNRWQQGTTFTCGVMHEALHNHITQKNVSKNPGK"
unit_abbrev = "nM"
recorded_measurement = 7.84

[[record]]
binder = "equine IgG1 Q311D (antibody, part only; not given: variable domains, not shown: another chain or arm of the molecule) constant: ASTTAPKVFALAPGCGTTSDSTVALGCLVSGYFPEPVKVSWNSGSLTSGVHTFPSVLQSSGFYSLSSMVTVPASTWTSETYICNVVHAASNFKVDKRIEPIPDNHQKVCDMSKCPKCPAPELLGGPSVFIFPPNPKDTLMITRTPEVTCVVVDVSQENPDVKFNWYMDGVEVRTATTRPKEEQFNSTYRVVSVLRIQHDDWLSGKEFKCKVNNQALPQPIERTITKTKGRSQEPQVYVLAPHPDELSKSKVSVTCLVKDFYPPEINIEWQSNGQPELETKYSTTQAQQDSDGSYFLYSKLSVDRNRWQQGTTFTCGVMHEALHNHYTQKNVSKNPGK"
unit_abbrev = "nM"
recorded_measurement = 54.6


Q: I am curious: what Kd value has been reported for equine IgG4 D312I (antibody, part only; not given: Variable domains, not shown: another chain or arm of the molecule) constant: ASTTAPKVFPLASHSAATSGSTVALGCLVSSYFPEPVTVSWNSGALTSGVHTFPSVLQSSGLYSLSSMVTVPASSLKSQTYICNVAHPASSTKVDKKIVIKECNGGCPAECLQVGPSVFIFPPKPKDVLMISRTPTVTCVVVDVGHDFPDVQFNWYVDGVETHTATTEPKQEQFNSTYRVVSVLPIQHKIWLSGKEFKCKVNNKALPAPVERTISKPTGQPREPQVYVLAPHRDELSKNKVSVTCLVKDFYPTDIDIEWKSNGQPEPETKYSTTPAQLDSDGSYFLYSKLTVETNRWQQGTTFTCAVMHEALHNHYTEKSVSKSPGK ?
A: 29.4

Taken from patent US20260070987A1.
